target: Butyrylcholinesterase (BChE) (Equus caballus, UniProt P81908); construct: Butyrylcholinesterase from equine serum (CAS No.: 9001–08-5); assay: biochemical
Sequence (P81908 whole entry): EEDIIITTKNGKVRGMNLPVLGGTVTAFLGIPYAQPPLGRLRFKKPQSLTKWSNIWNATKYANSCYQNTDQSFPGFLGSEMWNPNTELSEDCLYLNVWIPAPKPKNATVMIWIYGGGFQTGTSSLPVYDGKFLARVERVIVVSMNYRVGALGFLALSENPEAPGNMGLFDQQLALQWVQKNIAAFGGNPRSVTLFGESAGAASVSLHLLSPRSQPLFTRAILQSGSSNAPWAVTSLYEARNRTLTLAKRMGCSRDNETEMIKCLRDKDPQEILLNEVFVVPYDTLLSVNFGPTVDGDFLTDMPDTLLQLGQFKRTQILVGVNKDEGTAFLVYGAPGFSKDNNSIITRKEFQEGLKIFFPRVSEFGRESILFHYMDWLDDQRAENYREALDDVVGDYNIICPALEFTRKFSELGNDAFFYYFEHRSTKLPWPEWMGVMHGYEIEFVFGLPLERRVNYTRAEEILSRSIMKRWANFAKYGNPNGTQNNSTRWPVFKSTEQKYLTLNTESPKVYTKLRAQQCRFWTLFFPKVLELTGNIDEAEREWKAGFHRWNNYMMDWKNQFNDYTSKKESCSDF
pKi: −log10 of the molar value.
reported_metric: pKi

{"compound": "COc1ccc(C(=O)C2=C(c3ccc(OC)c(OC)c3OC)CCC2)c(OC)c1OC [Compound 4]", "value_measured": 6.39}
{"compound": "COc1ccc(C(=O)CCCCC(=O)c2ccc(OC)c(OC)c2OC)c(O)c1OC [Compound 7]", "value_measured": 6.21}
{"compound": "COc1ccc(C2=C(/C(=N/NC(C)=O)c3ccc(OC)c(OC)c3OC)CCC2)c(OC)c1OC [Compound 10]", "value_measured": 6.88}
{"compound": "COc1c(Br)c(Br)c(CC2CCCC2c2c(Br)c(Br)c(OC)c(OC)c2OC)c(OC)c1OC (stereo not shown) [Compound 12]", "value_measured": 7.07}
{"compound": "COc1c(Br)cc(C2CCCC2Cc2c(Br)c(Br)c(OC)c(OC)c2OC)c(OC)c1OC (stereo not shown) [Compound 13]", "value_measured": 6.69}
{"compound": "COc1ccc(CC2CCCC2c2ccc(OC)c(OC)c2OC)c(OC)c1OC (stereo not shown) [Compound 11]", "value_measured": 6.84}
{"compound": "COc1ccc(C(=O)CCCCC(=O)c2ccc(OC)c(OC)c2OC)c(OC)c1OC [Compound 6]", "value_measured": 6.67}
{"compound": "COc1ccc(C(=O)C2CCC=C2c2ccc(OC)c(OC)c2OC)c(OC)c1OC (stereo not shown) [Compound 5]", "value_measured": 6.76}
{"compound": "COc1c(Br)cc(C(=O)C(Br)CCC(Br)C(=O)c2cc(Br)c(OC)c(OC)c2O)c(O)c1OC (stereo not shown) [Compound 9]", "value_measured": 6.37}
{"compound": "COc1ccc(C(=O)CCCCC(=O)c2ccc(OC)c(OC)c2O)c(O)c1OC [Compound 8]", "value_measured": 6.68}

###

biological target: Acetylcholinesterase (AChE) (Electrophorus electricus, UniProt O42275)
Sequence (O42275 24-633): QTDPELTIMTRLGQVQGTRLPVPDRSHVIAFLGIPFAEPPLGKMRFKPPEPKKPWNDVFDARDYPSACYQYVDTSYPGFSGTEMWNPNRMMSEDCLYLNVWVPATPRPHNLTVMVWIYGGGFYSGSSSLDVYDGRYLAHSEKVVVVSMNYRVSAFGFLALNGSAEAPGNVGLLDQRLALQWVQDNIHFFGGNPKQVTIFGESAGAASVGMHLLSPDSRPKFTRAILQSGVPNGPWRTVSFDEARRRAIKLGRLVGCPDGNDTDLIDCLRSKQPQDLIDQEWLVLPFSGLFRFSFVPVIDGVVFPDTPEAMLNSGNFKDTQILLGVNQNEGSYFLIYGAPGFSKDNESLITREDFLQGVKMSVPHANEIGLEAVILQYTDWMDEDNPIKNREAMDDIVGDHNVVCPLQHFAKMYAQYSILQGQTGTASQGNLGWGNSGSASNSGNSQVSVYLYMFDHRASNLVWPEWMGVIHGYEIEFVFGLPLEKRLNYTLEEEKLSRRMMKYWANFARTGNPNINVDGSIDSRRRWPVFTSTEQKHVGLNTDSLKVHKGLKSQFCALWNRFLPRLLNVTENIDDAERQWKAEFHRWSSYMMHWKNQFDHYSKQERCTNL
pKi: −log10 of the molar value.
Below, each of the compounds is paired with its reported pKi value.

{"compound": "COc1c(Br)c(Br)c(CC2CCCC2c2c(Br)c(Br)c(OC)c(OC)c2OC)c(OC)c1OC (stereo not shown) [Compound 12]", "pKi": 7.21}
{"compound": "COc1ccc(C(=O)C2=C(c3ccc(OC)c(OC)c3OC)CCC2)c(OC)c1OC [Compound 4]", "pKi": 7.00}
{"compound": "COc1ccc(C(=O)CCCCC(=O)c2ccc(OC)c(OC)c2O)c(O)c1OC [Compound 8]", "pKi": 6.77}
{"compound": "COc1ccc(C(=O)CCCCC(=O)c2ccc(OC)c(OC)c2OC)c(O)c1OC [Compound 7]", "pKi": 6.20}

###

Measurement record for Acetylcholinesterase (AChE) (Electrophorus electricus); quantity recorded: log10 of IC50.
reported_metric: log10 of IC50 (log10 of the value in nM)

{"compound": "COc1ccc(C(=O)CCCCC(=O)c2ccc(OC)c(OC)c2O)c(O)c1OC", "value_measured": 2.24}
{"compound": "COc1c(Br)cc(C(=O)C(Br)CCC(Br)C(=O)c2cc(Br)c(OC)c(OC)c2O)c(O)c1OC (stereo not drawn)", "value_measured": 1.70}
{"compound": "COc1ccc(CC2CCCC2c2ccc(OC)c(OC)c2OC)c(OC)c1OC (stereo not drawn)", "value_measured": 2.23}
{"compound": "COc1ccc(C(=O)C2CCC=C2c2ccc(OC)c(OC)c2OC)c(OC)c1OC (stereo not drawn)", "value_measured": 1.96}
{"compound": "COc1ccc(C(=O)CCCCC(=O)c2ccc(OC)c(OC)c2OC)c(O)c1OC", "value_measured": 2.81}
{"compound": "COc1ccc(C(=O)CCCCC(=O)c2ccc(OC)c(OC)c2OC)c(OC)c1OC", "value_measured": 2.28}

Hey, just so you know, these numbers are from paper PMC11909056.
